- Protocol description: gradient 5% acetonitrile 3 min, to 50% in 2 min, to 85% in 15 min, held 3 min, 100 µL/min
- Test conditions: column: Zorbax Extend-C18 2.1 x 50 mm; eluents: water / acetonitrile, 0.1% formic acid
Property label: RP-LC retention time (s)

Please review the following examples before continuing.
> print(dat)
                                   molecule  measured.value
1   CCCCN(Cc1nc2nc(C)cc(C)n2n1)C(=O)c1ccco1             720
2  COc1ccccc1N1CCN(c2cc(SCC(=O)NCc3ccco3)ncn2)CC1             777
3  COc1ccc(NC(=O)Cc2csc3nc(-c4cccc(Br)c4)cn23)cc1OC             882

[a] Cc1ccc2oc(-c3nnc(C(=O)NCCN4CCC(C)CC4)o3)c(C)c2c1
[b] CCN1C(=O)COc2ccc(-c3csc(NC(=O)c4cc(OC)cc(OC)c4)n3)cc21
Among a and b , whose measured RP-LC retention time is the smaller figure? Your choice should be expressed through its label.
a

----------
- Protocol description: gradient 5% acetonitrile 3 min, to 50% in 2 min, to 85% in 15 min, held 3 min, 100 µL/min
- Test conditions: column: Zorbax Extend-C18 2.1 x 50 mm; eluents: water / acetonitrile, 0.1% formic acid
Property label: RP-LC retention time (s)

Please review the following examples before continuing.
> print(dat)
                                   molecule  measured.value
1  CC(CCNC(=O)CN1C(=O)C2CCCCN2c2ccc(C(=O)N3CCCC3)cc21)N1CCCC1 (stereo not drawn)             614
2  Cc1ccc(-c2nc3ccccn3c2Nc2ccc3c(c2)OCO3)cc1             694
3  CCOC(=O)c1cc(S(=O)(=O)N2CCCC2C(=O)Nc2nc3ccc(C)cc3s2)cn1C (stereo not drawn)            1040
4  CCN1C[C@]2(C)CC[C@H](OC)[C@]34C2[C@H](OC(C)=O)[C@@]2(OCO[C@@]25CC(OC)[C@H]2C[C@]3(O)C5[C@H]2OC)C14 (stereo partly drawn)             662
5  C[C@H]1CN(C(=O)Cc2c[nH]c3ccccc23)C[C@@H]1c1nc(-c2cccnc2)no1             755

[P] CC(C)NC(=O)Cc1nnc2cc(-c3nc(C4CC4)no3)ccn12
[Q] Cc1ccc(C)c(-c2cc3c(=O)n(Cc4nc(-c5ccccc5)no4)ncn3n2)c1
Among P and Q , whose measured RP-LC retention time is the smaller figure? Your choice should be expressed through its label.
P

[A] Cc1cc(C(=O)NC2CC2)c2cc(Br)ccc2n1
[B] O=C(NC1CCCCCC1)c1cn(-c2cc(-c3nc(C4CC4)no3)ccn2)cn1
Among A and B , whose measured RP-LC retention time is the smaller figure? Your choice should be expressed through its label.
A
(A: 664 s, B: 1040 s)

[I] COc1ccc(CNC(=O)N2CCC(COCc3ccccc3)CC2)cc1OC
[II] Nc1cc(C2CCN(C(=O)c3cccnc3)CC2)no1
Parameter check: reported RP-LC retention time is higher for which label, I or II ? Your choice should be expressed through its label.
I
(I: 814 s, II: 554 s)

[I] CC(=O)N1CCc2cc(N3CC(C(=O)Nc4ccccc4C)CC3=O)ccc21 (stereo not drawn)
[II] Cc1cc(=O)n(CC(=O)Nc2ccccc2F)c(-c2ccccc2)n1
Among I and II , whose measured RP-LC retention time is the smaller figure? Your choice should be expressed through its label.
I
(I: 692 s, II: 1000 s)
